These measurements were taken from patent US20250332152A1.

- testMethodNotes: Solubility of flecainide acetate in water solution
- Type: physicochemical

| compound | solubility |
| --- | --- |
| O=C(NCC1CCCCN1)c1cc(OCC(F)(F)F)ccc1OCC(F)(F)F (stereo not shown) [flecainide acetate] | ~60 mg/mL |
